# Test system: Escherichia coli (E. coli) strain CFT073 ATCC 700928
# Type: cell-based
# experimentalConditions: ATCC 700928, 22 h
*1 amine or outer side, *2 acyl side, *3 side chain or, on linkers, in order; H or OH if unused. Where a SMILES comes first, the peptide text is derived from it. [ ]: non-standard residue; d: D form. The star is where a group is joined. X16 = CCCCCC[C@@H](O[C@@H](C)CN[*:1])[C@@H](C)C(=O)[*:2]; X2 = CCCCCC[C@@H](OC[C@@H](C)N[*:1])[C@@H](C)C(=O)[*:2]; aThr = C[C@H](O)[C@H](N)C(=O)O; NMeL = CN[C@@H](CC(C)C)C(=O)O; Chg = N[C@H](C(=O)O)C1CCCCC1; NMeNva = CCC[C@H](NC)C(=O)O; Dap = NC[C@H](N)C(=O)O; Propyl(3-NH2) = NCCC*; X11 = OC[C@H](O)C*
Criterion: MIC strictly less than 20 µM. Met: true (1). Not met: false (0).

A selection of reference data follows.
- CCC(F)CCC[C@H]1OC(=O)CNC(=O)[C@H]([C@H](C)O)NC(=O)[C@H](CN)NC(=O)[C@H]([C@H](C)CC)NC(=O)[C@H](CC(C)C)N(C)C(=O)[C@@H]1C (some centres unmarked): false (0)
- CCCCCC[C@H]1OC[C@@H](C)NC(=O)[C@H](COCCCN)NC(=O)[C@H](CO)NC(=O)[C@H](C2CCCCC2)NC(=O)[C@H](CCC)N(C)C(=O)[C@@H]1C [Example 130] (cyclo([Chg]SS(Propyl(3-NH2))[X2][NMeNva])): false (0)
- CCCCCC[C@H]1OC[C@@H](C)NC(=O)[C@H](COC[C@@H](O)CO)NC(=O)[C@H](CN)NC(=O)[C@H](C2CCCCC2)NC(=O)[C@H](CC(C)C)N(C)C(=O)[C@@H]1C [Example 67] (cyclo([Chg][Dap]S(X11)[X2][NMeL])): true (1)
- CCCCCCCCCC[C@H]1OC(=O)CNC(=O)[C@H](CCN)NC(=O)[C@H](CO)NC(=O)[C@H]([C@@H](C)CC)NC(=O)[C@H](CC(C)C)N(C)C(=O)[C@@H]1C: false (0)

# ---- query compound ----
Strictly below 20 µM: is that where MIC of CCCCCC[C@H]1O[C@@H](C)CNC(=O)[C@H]([C@H](C)O)NC(=O)[C@H](CN)NC(=O)[C@H](C2CCCCC2)NC(=O)[C@H](CC(C)C)N(C)C(=O)[C@@H]1C [Example 71] (cyclo([Chg][Dap][aThr][X16][NMeL])) sits? true (1)

====

Let's look at some compounds and their measured log10 MIC.
# Tested on: Escherichia coli (E. coli) strain CFT073 ATCC 700928
# Format: cell-based
# experimentalConditions: ATCC 700928, 22 h
*1 amine or outer side, *2 acyl side, *3 side chain or, on linkers, in order; H or OH if unused. Where a SMILES comes first, the peptide text is derived from it. [ ]: non-standard residue; d: D form. The star is where a group is joined. X2 = CCCCCC[C@@H](OC[C@@H](C)N[*:1])[C@@H](C)C(=O)[*:2]; X21 = C[C@H](CO[C@@H]1CCCCCC[C@H]1C(=O)[*:2])N[*:1]; X14 = CCCCCC[C@@H](OCCN[*:1])[C@@H](C)C(=O)[*:2]; aThr = C[C@H](O)[C@H](N)C(=O)O; NMeL = CN[C@@H](CC(C)C)C(=O)O; Chg = N[C@H](C(=O)O)C1CCCCC1; NMeNva = CCC[C@H](NC)C(=O)O; Propyl(3-NMe2) = CN(C)CCC*; Dap = NC[C@H](N)C(=O)O
A value of 2 here means MIC of 100 in µM, since values are log10.

- CCCCCC[C@H]1OC[C@@H](C)NC(=O)[C@H](CNCCN)NC(=O)[C@H](CN)NC(=O)[C@H](C2CCCCCC2)NC(=O)[C@H](CC(C)C)N(C)C(=O)[C@@H]1C: 0.80

In one line, give reported log10 MIC of the entry CCCCCC[C@H]1OC[C@@H](C)NC(=O)[C@H](COCCCN(C)C)NC(=O)[C@H](CN)NC(=O)[C@H](C2CCCCC2)NC(=O)[C@H](CC(C)C)N(C)C(=O)[C@@H]1C [Example 78] (cyclo([Chg][Dap]S(Propyl(3-NMe2))[X2][NMeL])) . 1.40

In one line, give reported log10 MIC of the entry CCC[C@H]1C(=O)N[C@@H](C2CCCCC2)C(=O)N[C@@H](CN)C(=O)N[C@@H]([C@H](C)O)C(=O)N[C@H](C)CO[C@@H]2CCCCCC[C@H]2C(=O)N1C [Example 86] (cyclo([Chg][Dap][aThr][X21][NMeNva])) . 1.70

In one line, give reported log10 MIC of the entry CCCCCCC1OC(=O)CNC(=O)[C@H](CNC(=O)Cn2ccnc2)NC(=O)[C@H](CN)NC(=O)[C@H](C2CCCCC2)NC(=O)[C@H](CC(C)C)N(C)C(=O)[C@@H]1C (stereo in doubt) . 1.85

In one line, give reported log10 MIC of the entry CCCCCC[C@H]1OCCNC(=O)[C@H]([C@H](C)O)NC(=O)[C@H](CN)NC(=O)[C@H](C2CCCCC2)NC(=O)[C@H](CC(C)C)N(C)C(=O)[C@@H]1C [Example 115] (cyclo([Chg][Dap][aThr][X14][NMeL])) . 0.94

In one line, give reported log10 MIC of the entry CCCCCC[C@H]1OC(=O)CNC(=O)[C@H]([C@H](C)O)NC(=O)[C@H](CN)NC(=O)[C@H](C2CCC(F)(F)CC2)NC(=O)[C@H](CC(C)C)N(C)C(=O)[C@@H]1C (single isomer, unassigned) . 1.08

In one line, give reported log10 MIC of the entry CCCCCCCCCC[C@H]1OC(=O)CNC(=O)[C@H](C(C)(C)O)NC(=O)[C@H](CO)NC(=O)[C@H]([C@@H](C)CC)NC(=O)[C@H](CC(C)C)N(C)C(=O)[C@@H]1C . 1.70

In one line, give reported log10 MIC of the entry CCCCCC[C@H]1OC[C@@H](C)NC(=O)[C@H](COc2ccc(CN)cc2)NC(=O)[C@H](CN)NC(=O)[C@H](C2CCCCC2)NC(=O)[C@H](CC(C)C)N(C)C(=O)[C@@H]1C . 0.80

In one line, give reported log10 MIC of the entry CCC[C@H]1C(=O)N[C@@H](C2CCCCCC2)C(=O)N[C@@H](CN)C(=O)N[C@@H](CO[C@H]2C[C@H](N)C2)C(=O)NCC(=O)O[C@H](CCC2CC3CCC2C3)[C@@H](C)C(=O)N1C (stereo partly drawn) . -0.11
